# target of assay: PI3K γ (p110γ) (Homo sapiens, UniProt P48736)
# Construct: purchased Upstate / Millipore Corporation
# Sequence (P48736 whole entry): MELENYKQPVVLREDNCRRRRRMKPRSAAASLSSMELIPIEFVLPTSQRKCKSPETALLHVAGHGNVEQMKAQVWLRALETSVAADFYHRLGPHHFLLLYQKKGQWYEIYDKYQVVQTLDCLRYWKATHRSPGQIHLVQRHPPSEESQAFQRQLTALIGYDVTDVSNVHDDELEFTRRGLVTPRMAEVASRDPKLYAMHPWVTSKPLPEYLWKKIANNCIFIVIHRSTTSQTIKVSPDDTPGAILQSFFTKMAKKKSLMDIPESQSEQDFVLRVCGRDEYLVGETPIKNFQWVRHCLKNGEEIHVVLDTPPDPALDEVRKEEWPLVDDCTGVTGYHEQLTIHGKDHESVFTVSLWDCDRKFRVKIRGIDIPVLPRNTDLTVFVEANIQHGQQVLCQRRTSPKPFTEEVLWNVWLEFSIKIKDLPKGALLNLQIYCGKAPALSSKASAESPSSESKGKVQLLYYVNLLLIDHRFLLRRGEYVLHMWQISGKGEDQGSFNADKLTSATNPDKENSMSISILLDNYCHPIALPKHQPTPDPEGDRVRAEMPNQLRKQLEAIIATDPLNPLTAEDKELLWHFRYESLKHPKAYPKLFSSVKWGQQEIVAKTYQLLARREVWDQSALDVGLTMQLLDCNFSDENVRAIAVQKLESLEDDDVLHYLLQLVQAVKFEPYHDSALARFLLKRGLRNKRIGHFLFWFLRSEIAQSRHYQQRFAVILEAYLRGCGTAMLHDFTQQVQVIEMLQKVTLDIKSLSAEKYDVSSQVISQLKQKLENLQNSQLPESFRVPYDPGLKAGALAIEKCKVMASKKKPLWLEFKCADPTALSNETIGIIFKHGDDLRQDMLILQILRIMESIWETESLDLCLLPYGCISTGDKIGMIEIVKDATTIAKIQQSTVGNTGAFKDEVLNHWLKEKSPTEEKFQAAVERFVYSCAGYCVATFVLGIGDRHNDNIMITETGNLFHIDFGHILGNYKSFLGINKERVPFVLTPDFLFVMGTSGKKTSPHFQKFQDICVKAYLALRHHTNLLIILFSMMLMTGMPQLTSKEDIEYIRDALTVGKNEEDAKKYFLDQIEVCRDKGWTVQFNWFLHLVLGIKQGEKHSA
# experiment notes: PI 3-Kinase (human) HTRF assay, PI3K γ
# Assay type: biochemical
# run parameters: read-out: PI3K γ IC50
pIC50: −log10 of the molar value.
measurement type: pIC50

Would you mind listing pIC50 for each of the following compounds?
1. Nc1nc2cc(-c3ccc4ncc(N5CCCCC5)nc4c3)ccc2o1
2. Cc1nccn1C1CCN(c2cnc3ccc(-c4ccc5oc(N)nc5c4)cc3n2)CC1
3. CCn1cnc2ccc(-c3ccc4oc(N)nc4c3)cc2c1=O
4. Nc1nc2cc(-c3ccc4ncc(N5CC[C@H](O)C5)nc4c3)ccc2o1
5. Nc1ncnc2ccc(-c3ccc4nccc(-c5ccncc5)c4c3)cc12
6. O=C(c1cnc2ccc(-c3ccc4oc(NC5CC5)nc4c3)cn12)N1CCOCC1

Result:
1. > 5.00
2. > 5.00
3. > 7.00
4. > 6.00
5. > 6.00
6. < 5.00

// each compound listed below needs its pIC50
1. Nc1nc2ccc(-c3ccc4nnc(C(=O)N5CCCC5)n4c3)cc2o1
2. CN1CCN(Cc2nnc3ccc(-c4ccc5nc(N)oc5c4)cn23)CC1
3. Nc1nc2cc(-c3ccc4ncn(CCN5CCCC5)c(=O)c4c3)ccc2o1

Result:
1. < 5.00
2. < 5.00
3. > 5.00

Item: Nc1nc2cc(-c3ccc4ncc(C(=O)N5CC(N6CC[C@@H](O)C6)C5)n4c3)ccc2o1 | pIC50: > 6.00

Taken from patent US20150087627A1.
